- Test system: p-IKKa levels in L363 (NIK translocated multiple myeloma) cells
- test method notes: Assay 2: Effect of compounds on p-IKKa levels in L363 (NIK translocated multiple myeloma) cells
- Format: cell-based
- particulars: Homo sapiens, L-363, 6 h, read-out: Assay 2 IC50 (nM), p-IKKa (Ser 176/180) in BAFF stimulated L363 cells with MG132, 6 h; average if tested more than once
- Protocol: Assay 2: Effect of Compounds on p-IKKa Levels in L363 (NIK Translocated Multiple Myeloma) Cells All compounds tested were dissolved and serially diluted in DMSO, 1:3 dilution for 11 points in an Echo compatible plate. 100% DMSO was added to columns 12 and 24 of the plate to serve as high and low signal controls. This compound plate was used to spot 20 nL of compound or DMSO into a Greiner 384 well TC plate (781080). The final DMSO concentration was 0.3% (v/v) in cell assays. […]
Kindly state IC50 for each of the entries shown.

p-IKKa levels in L363 (NIK translocated multiple myeloma) cells / IC50 / CC(Nc1nccc(-c2cccc(-c3cc([C@]4(O)CCN(C)C4=O)on3)n2)n1)c1cnco1 (stereo partly shown) [Example 372] : value?
50 to 500 nM

p-IKKa levels in L363 (NIK translocated multiple myeloma) cells / IC50 / CN1CC[C@H](n2cc(Nc3nccc(-c4cccc(-c5cc([C@]6(O)CCN(C)C6=O)on5)n4)n3)cn2)C1 (single isomer, unassigned) [Example 203] : value?
50 to 500 nM

p-IKKa levels in L363 (NIK translocated multiple myeloma) cells / IC50 / CN1CC[C@@](O)(c2cc(-c3cccc(-c4ccnc(Nc5cnc6c(c5)CCCO6)n4)n3)no2)C1=O [Example 474] : value?
< 50 nM

p-IKKa levels in L363 (NIK translocated multiple myeloma) cells / IC50 / Cc1nn(CC(F)F)cc1Nc1nccc(-c2cccc(-n3cc([C@]4(O)CCN(C)C4=O)nn3)n2)n1 [Example 144] : value?
< 50 nM

p-IKKa levels in L363 (NIK translocated multiple myeloma) cells / IC50 / CN1CC[C@@](O)(c2cc(-c3cccc(-c4ccnc(Nc5cnn6c5CN(CC5CC5)CC6)n4)n3)no2)C1=O [Example 433] : value?
< 50 nM

p-IKKa levels in L363 (NIK translocated multiple myeloma) cells / IC50 / CN(C)CCOc1ccc(Nc2nccc(-c3cccc(-c4cc([C@]5(O)CCN(C)C5=O)on4)n3)n2)nn1 [Example 130] : value?
50 to 500 nM

p-IKKa levels in L363 (NIK translocated multiple myeloma) cells / IC50 / CN1C(=O)[C@](O)(c2cc(-c3cccc(-c4ccnc(Nc5ccn(C)n5)n4)n3)no2)C[C@H]1C(F)(F)F [Example 1] : value?
50 to 500 nM

---

- System: p-IKKa levels in L363 (NIK translocated multiple myeloma) cells
- test method notes: Assay 2: Effect of compounds on p-IKKa levels in L363 (NIK translocated multiple myeloma) cells
- Type: cell-based
- particulars: Homo sapiens, L-363, 6 h, read-out: Assay 2 IC50 (nM), p-IKKa (Ser 176/180) in BAFF stimulated L363 cells with MG132, 6 h; average if tested more than once
measure: IC50

p-IKKa levels in L363 (NIK translocated multiple myeloma) cells / IC50 / CO[C@@H]1CCOC[C@H]1Nc1nccc(-c2cccc(-c3cc([C@]4(O)CCN(C)C4=O)on3)n2)n1 : value?
> 500 nM

p-IKKa levels in L363 (NIK translocated multiple myeloma) cells / IC50 / CN1CC[C@@](O)(c2cc(-c3cccc(-c4ccnc(Nc5ccn(C)n5)n4)n3)[nH]n2)C1=O (single isomer, unassigned) : value?
50 to 500 nM

p-IKKa levels in L363 (NIK translocated multiple myeloma) cells / IC50 / CN1CC[C@@](O)(c2cc(-c3cccc(-c4ccnc(Nc5ncc(CO)cn5)n4)n3)no2)C1=O : value?
> 500 nM

p-IKKa levels in L363 (NIK translocated multiple myeloma) cells / IC50 / CN1CC[C@@](O)(c2cnn(-c3cccc(-c4ccnc(Nc5cnn6ccccc56)n4)n3)c2)C1=O : value?
50 to 500 nM

---

- Test system: p-IKKa levels in L363 (NIK translocated multiple myeloma) cells
- test method notes: Assay 2: Effect of compounds on p-IKKa levels in L363 (NIK translocated multiple myeloma) cells
- Type: cell-based
- particulars: Homo sapiens, L-363, 6 h, read-out: Assay 2 IC50 (nM), p-IKKa (Ser 176/180) in BAFF stimulated L363 cells with MG132, 6 h; average if tested more than once
measure: IC50

So what does the record say about IC50 for COCc1cc(Nc2nccc(-c3cccc(-c4cc([C@]5(O)CCN(C)C5=O)on4)n3)n2)nn1C ?
< 50 nM

So what does the record say about IC50 for CN1CC[C@@](O)(c2cc(-c3cccc(-c4ccnc(Nc5cnn(C)c5F)n4)n3)no2)C1=O ?
< 50 nM

So what does the record say about IC50 for CN1CC[C@@](O)(c2cc(-c3cccc(-c4ccnc(Nc5cc6n(n5)CC5(CC5)C6)n4)n3)no2)C1=O ?
< 50 nM

So what does the record say about IC50 for CN1CC[C@](O)(c2csc(-c3cccc(-c4ccnc(Nc5ccn(C)n5)n4)n3)n2)C1=O (single isomer, unassigned) ?
> 500 nM

So what does the record say about IC50 for COCn1ncc(Nc2nccc(-c3cccc(-c4cc([C@]5(O)CCN(C)C5=O)on4)n3)n2)n1 ?
< 50 nM

So what does the record say about IC50 for CN1CC[C@@](O)(c2cc(-c3cccc(-c4ccnc(NC[C@@H]5CCO5)n4)n3)no2)C1=O ?
> 500 nM

So what does the record say about IC50 for CCn1cc(Nc2nccc(-c3cccc(-c4cc([C@@]5(O)C(=O)N(C)CC5(F)F)on4)n3)n2)cn1 ?
< 50 nM

So what does the record say about IC50 for C[C@@H](Nc1nccc(-c2cccc(-c3cc([C@]4(O)CCN(C)C4=O)no3)n2)n1)c1cnn(C)c1 (single isomer, unassigned) ?
< 50 nM

So what does the record say about IC50 for Cc1cccnc1[C@H](C)Nc1nccc(-c2cccc(-c3cc([C@]4(O)CCN(C)C4=O)on3)n2)n1 (single isomer, unassigned) ?
> 500 nM

So what does the record say about IC50 for [2H]C([2H])([2H])n1cc(Nc2nccc(-c3cccc(-c4cc([C@]5(O)CCN(C)C5=O)on4)n3)n2)cn1 ?
< 50 nM

So what does the record say about IC50 for CN1CC[C@@](O)(c2cc(-c3cccc(-c4ccnc(Nc5cn(CC(F)F)nc5OC5CC5)n4)c3)no2)C1=O ?
50 to 500 nM

So what does the record say about IC50 for CN1CC[C@@](O)(c2cc(-c3cccc(-c4ccnc(Nc5cnn(CCF)c5)n4)n3)no2)C1=O ?
< 50 nM

So what does the record say about IC50 for COc1cccc(Nc2nccc(-c3cccc(-c4cc([C@]5(O)CCN(C)C5=O)on4)n3)n2)n1 ?
50 to 500 nM

So what does the record say about IC50 for C[C@@H](Nc1nccc(-c2cccc(-c3cc([C@]4(O)CCN(C)C4=O)on3)n2)n1)c1ccn2ccnc2c1 (single isomer, unassigned) ?
> 500 nM

So what does the record say about IC50 for Cc1noc([C@H](C)Nc2nccc(-c3cccc(-c4cc([C@]5(O)CCN(C)C5=O)on4)n3)n2)n1 (single isomer, unassigned) ?
50 to 500 nM

So what does the record say about IC50 for CN1CC[C@](O)(c2cc(-c3cccc(-c4ccnc(Nc5cnn(C)c5Cl)n4)n3)n[nH]2)C1=O (single isomer, unassigned) ?
50 to 500 nM

So what does the record say about IC50 for C[C@@H]1Cn2nc(Nc3nccc(-c4cccc(-c5cc([C@]6(O)CCN(C)C6=O)on5)n4)n3)cc2CO1 (single isomer, unassigned) ?
< 50 nM

So what does the record say about IC50 for Cc1nc(-c2ccc(Nc3nccc(-c4cccc(-c5cc([C@]6(O)CCN(C)C6=O)on5)n4)n3)nc2)n(C)n1 ?
> 500 nM

So what does the record say about IC50 for C[C@H](Nc1nccc(-c2cccc(-c3cc([C@]4(O)CCN(C)C4=O)on3)n2)n1)C(=O)N1CC(C(F)(F)F)C1 ?
50 to 500 nM

So what does the record say about IC50 for CN1CC(F)(F)[C@@](O)(c2cc(-c3cccc(-c4ccnc(Nc5cnn6c5COCC6)n4)n3)no2)C1=O ?
< 50 nM

So what does the record say about IC50 for CN1CC[C@@](O)(c2cn(-c3cccc(-c4ccnc(Nc5cnn(C)c5)n4)n3)nn2)C1=O ?
< 50 nM

So what does the record say about IC50 for CN1CC[C@@](O)(c2cc(-c3cccc(-c4ccnc(Nc5cnn6c5CCCC6)n4)n3)no2)C1=O ?
< 50 nM

So what does the record say about IC50 for Cc1nscc1Nc1nccc(-c2cccc(-c3cc([C@]4(O)CCN(C)C4=O)on3)n2)n1 ?
< 50 nM

So what does the record say about IC50 for Cc1cc(Nc2nccc(-c3cccc(-c4cc([C@]5(O)CCN(C)C5=O)on4)n3)n2)c(F)cn1 ?
< 50 nM

So what does the record say about IC50 for CN1CC[C@@](O)(c2cc(-c3cccc(-c4ccnc(Nc5cnn6c5OCCC6)n4)c3)no2)C1=O ?
> 500 nM

So what does the record say about IC50 for CN1CC[C@@](O)(c2cc(-c3cccc(-c4ccnc(Nc5cnn6c5NCCC6)n4)c3)no2)C1=O ?
> 500 nM

So what does the record say about IC50 for CN1CC[C@@](O)(c2cc(-c3cccc(-c4ccnc(N5CCCn6ncc(N)c65)n4)c3)no2)C1=O ?
> 500 nM

Where do these numbers come from? They come from patent US20250282768A1.
